Parameter GI50: see the listing below.
- System: HL-60
- experiment summary: NCI tumour cell line growth inhibition, 48 h
Calls of active or inactive are those of the source. Rule as the data show it: active = GI50 up to about 1.1 µM and inactive = higher.

| compound | GI50 |
| --- | --- |
| CCCCCCCCCCCCCCCCCC(=O)Nc1ccn(C2OC(CO)C(O)C2O)c(=O)n1 (centres undefined) | 3.43 µM (inactive) |
| Cc1ccc(S(=O)(=O)N(/N=C/C=C/c2ccccc2)c2nnc(-c3ccccc3)c(-c3ccccc3)n2)cc1 | 14.9 µM (inactive) |
| O=C1NC2(CCCC2)C2CCCCC12O (centres undefined) | > 100 µM (inactive) |
| CSc1nc(NC2OC(COC(C)=O)C(OC(C)=O)C(OC(C)=O)C2OC(C)=O)c(/N=C/C=N/c2c(NC3OC(COC(C)=O)C(OC(C)=O)C(OC(C)=O)C3OC(C)=O)nc(SC)[nH]c2=O)c(=O)[nH]1 (centres undefined) | > 100 µM (inactive) |
| CN(C)c1ccc(/C=C2\Oc3cc(O)ccc3C2=O)cc1 | 40.5 µM (inactive) |
| CC1OC(OC2C(O)COC(OC3C(C)OC(OC4C(OC(=O)[C@]56CCC(C)(C)C[C@@H]5C5=CCC7[C@@]8(C)C[C@H](O)[C@H](OC9OC(CO)C(O)C(OC%10OC(CO)C(O)C(O)C%10O)C9O)[C@@](C)(CO)[C@@H]8CC[C@@]7(C)[C@]5(C)CC6)OCC(O)C4O)C(O)C3OC3OCC(O)C(O)C3O)C2O)C(O)C(O)C1O (some centres undefined) | 3.72 µM (inactive) |
| C[N+](C)(C)CC1Cc2ccccc2C1=O (centres undefined) | 1.56 µM (inactive) |
| CC1(C)CC(O)C(C)(C)[C@@H](O)C1 (some centres undefined) | > 100 µM (inactive) |
| O=C(CC(C(=O)c1cccs1)c1ccsc1)c1ccc(Cl)cc1 (centres undefined) | > 100 µM (inactive) |
| CN1C(=O)C(CC(=O)O)NC1=S (centres undefined) | > 100 µM (inactive) |
| COc1cc(C2C(Cl)C(=O)N2n2cnc3ccccc3c2=O)ccc1O (centres undefined) | > 10 µM (inactive) |
| COc1cc2c3cc1Oc1c(OC)c(OC)cc4c1[C@@H](Cc1ccc(O)c(c1)Oc1ccc(cc1)C[C@@H]3N(C)CC2)N(C)CC4.c1ccccc1 | 10.2 µM (inactive) |
| O=C(O)c1cc(-c2ccc3c(O)c(O)ccc3c2)ccc1O | 16.8 µM (inactive) |
| COc1cc2c(cc1OC)CN1CCc3ccccc3CC1C2 (centres undefined) | 27.2 µM (inactive) |
| CC1(C)CN=C(Nc2ccc(Cl)cc2)S1 | 30.5 µM (inactive) |
| C#CCN(Cc1ccc2nc(-c3ccccc3)c(N)nc2c1)c1cc(OC)c(OC)c(OC)c1 | 17.9 µM (inactive) |
| Nn1c(Cc2ccc([N+](=O)[O-])cc2)n[nH]c1=O | > 100 µM (inactive) |
| CCC/N=C1\S/C(=C/c2ccc(OC)c(OC)c2)C(=O)N1c1ccccc1 | 59.8 µM (inactive) |
| CC(=O)O[C@]12CCCCC1C1(O)C(O)CCCCC12 (some centres undefined) | > 100 µM (inactive) |
